Reported growth values follow for various molecules
# Tested on: HCT-116 colon
# TEST_NAME: NCI-60 one-dose screen, 48 h (100 = growth as untreated, 0 = no growth, -100 = all killed)
# EXPERIMENTAL_SETUP: 10 µM unless noted
# Protocol: Growth inhibition of the HCT-116 human tumor cell line is measured as a screen for anti-cancer activity. Cells are grown in 96 well plates and exposed to the test compound for 48 hours. Compounds are tested at a single concentration, which is 10^-5 M for most compounds. The reported endpoint is percent growth (GI% or GIPRCNT), where numbers from 0 - 100% represent growth inhibition, and numbers from -100% - 0 represent cell death. For example, a value of 40 represents 60% growth inhibition. […]
The panel holds about 83,000 compounds, 20% with a hit somewhere; the sample as a whole holds those more often.
I only need the number, in %, no unit after it.

[[record]]
smiles_text = "COc1ccc2nc(SCC(=O)Nc3ccccc3C)[nH]c2c1"
target_under_test = "HCT-116 colon"
readout_kind = "growth"
result_value = 98.9

[[record]]
smiles_text = "CCOC(=O)C(=Cc1cccc(C#N)c1)C(=O)OCC"
target_under_test = "HCT-116 colon"
readout_kind = "growth"
result_value = 20.9

[[record]]
smiles_text = "CC(C)(C)c1cc(C=Nc2cccc(C(F)(F)F)c2)c(O)c(C(C)(C)C)c1"
target_under_test = "HCT-116 colon"
readout_kind = "growth"
result_value = 94.1


Note growth for the molecule shown: "C=C1C(=O)O[C@H]2[C@H]1CC/C(COC(=O)NCc1ccc(Cn3c(=O)sn(-c4ccc(OC)cc4)c3=O)cc1)=C\CC[C@@]1(C)O[C@@H]21" 5.31

Note growth for the molecule shown: "C=C1C(=O)O[C@H]2[C@H]1CC/C(COC(=O)/C=C\C(=O)NCc1ccc(Cn3c(=O)sn(-c4ccccc4)c3=O)cc1)=C\CC[C@@]1(C)O[C@@H]21" 33.6

Note growth for the molecule shown: "Cc1ccc(O)c(NC(=O)c2ccc(CNc3ccnc(C(F)(F)F)c3)cc2)c1" 66.4

Note growth for the molecule shown: "O=c1ccc2nc(C(F)(F)F)nn(-c3ccccc3)c-2c1" 35.2

Note growth for the molecule shown: "CC1(C)OC(=O)C(=Cc2cccc(Br)c2)C(=O)O1" 102

Note growth for the molecule shown: "N#Cc1c(-c2ccccc2)c(C#N)c2c(C#N)c(N)nn2c1N" 24.2
